Provide the reported inhibition in vivo at 100 mg/kg of each item.
- Tested on: Peptic ulcer due to pyloric ligation
- experiment.summary: Effect on peptic ulcer due to pyloric ligation
- Assay type: in vivo, male rats
- assay.conditions: Rattus norvegicus, ip, 15 h, intraperitoneal, rats, control ulcer coefficient 42.0 mm^2, read-out: Rate of suppression of ulcer
Your answer is read as %, so omit the unit and give the number.

Consider the compound COc1ccc(-c2nc(C)c(C(N)=O)s2)cc1 and give its measured inhibition in vivo at 100 mg/kg.
97.9

Consider the compound CNC(=O)c1sc(-c2cc(OC)c(OC)c(OC)c2)nc1C and give its measured inhibition in vivo at 100 mg/kg.
65

Consider the compound CCCNC(=O)c1sc(-c2ccc(OC)cc2)nc1C and give its measured inhibition in vivo at 100 mg/kg.
79.8

Consider the compound CC(C)=CCCC(C)=CCCC(C)=CCCC(=O)OCC=C(C)CCC=C(C)C [Gefarnate, reference compound] and give its measured inhibition in vivo at 100 mg/kg.
12.1

Consider the compound COc1ccccc1-c1nc(C)c(C(N)=O)s1 and give its measured inhibition in vivo at 100 mg/kg.
97.1

Consider the compound CCCNC(=O)c1sc(-c2cc(OC)c(OC)c(OC)c2)nc1C and give its measured inhibition in vivo at 100 mg/kg.
85

Consider the compound CNC(=O)c1sc(-c2ccccc2OC)nc1C and give its measured inhibition in vivo at 100 mg/kg.
79.5

Consider the compound CNC(=O)c1sc(-c2ccc(OC)c(OC)c2)nc1C and give its measured inhibition in vivo at 100 mg/kg.
73.8

Consider the compound CCCNC(=O)c1sc(-c2ccc(OC)c(OC)c2)nc1C and give its measured inhibition in vivo at 100 mg/kg.
80

Consider the compound CNC(=O)c1sc(-c2ccc(OC)cc2)nc1C and give its measured inhibition in vivo at 100 mg/kg.
84.8

Consider the compound CCCNC(=O)c1sc(-c2ccccc2OC)nc1C and give its measured inhibition in vivo at 100 mg/kg.
78.6

Consider the compound COc1ccc(-c2nc(C)c(C(N)=O)s2)cc1OC and give its measured inhibition in vivo at 100 mg/kg.
98.1

###

- Tested on: Peptic ulcer due to acetic acid
- experiment.summary: Effect on peptic ulcer due to acetic acid (duodenal)
- Format: in vivo, male rats
- assay.conditions: 100 mg/kg, orally 3 times a day for 10 days from third day; rats
Label satisfied when Ulcer coefficient is at or above 3 mm^2; otherwise label not satisfied.

Is it the case that CCCNC(=O)c1sc(-c2ccc(OC)c(OC)c2)nc1C has Ulcer coefficient reaching or exceeding 3 mm^2?
not satisfied

Is it the case that COc1ccc(-c2nc(C)c(C(N)=O)s2)cc1OC has Ulcer coefficient reaching or exceeding 3 mm^2?
not satisfied

Is it the case that CNC(=O)c1sc(-c2ccc(OC)c(OC)c2)nc1C has Ulcer coefficient reaching or exceeding 3 mm^2?
not satisfied

Is it the case that CNC(=O)c1sc(-c2ccccc2OC)nc1C has Ulcer coefficient reaching or exceeding 3 mm^2?
not satisfied

Is it the case that CNC(=O)c1sc(-c2cc(OC)c(OC)c(OC)c2)nc1C has Ulcer coefficient reaching or exceeding 3 mm^2?
satisfied

Is it the case that CNC(=O)c1sc(-c2ccc(OC)cc2)nc1C has Ulcer coefficient reaching or exceeding 3 mm^2?
satisfied

Is it the case that COc1ccccc1-c1nc(C)c(C(N)=O)s1 has Ulcer coefficient reaching or exceeding 3 mm^2?
not satisfied

Is it the case that CCCNC(=O)c1sc(-c2ccc(OC)cc2)nc1C has Ulcer coefficient reaching or exceeding 3 mm^2?
not satisfied

Is it the case that CCCNC(=O)c1sc(-c2cc(OC)c(OC)c(OC)c2)nc1C has Ulcer coefficient reaching or exceeding 3 mm^2?
not satisfied

Is it the case that COc1ccc(-c2nc(C)c(C(N)=O)s2)cc1 has Ulcer coefficient reaching or exceeding 3 mm^2?
not satisfied

Is it the case that CCCNC(=O)c1sc(-c2ccccc2OC)nc1C has Ulcer coefficient reaching or exceeding 3 mm^2?
satisfied

Is it the case that CC(C)=CCCC(C)=CCCC(C)=CCCC(=O)OCC=C(C)CCC=C(C)C [Gefarnate, reference compound] has Ulcer coefficient reaching or exceeding 3 mm^2?
satisfied
